assay: NCI Yeast Anticancer Drug Screen. Data for the cln2 rad14 strain (AID 165);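 further: 0% = growth equal to vehicle treated cultures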; conditions: S. cerevisiae cln2 rad14 strain, at 50.0 µM (retest, dose inferred, filed as 5.0), active compounds read high
About 79,000 compounds went through this panel and 15% of them were active in at least one assay; those are over-represented in the sample as a whole.
Think of 60% as a floor: if growth inhibition stands on it or above, it is Y; beneath it, N.

>  <given_smiles>
C/C(=N\NC(=S)N1CCCC1)c1cnccn1

>  <assigned_class>
Y

$$$$
>  <given_smiles>
BrCc1ccccc1C[P+](c1ccccc1)(c1ccccc1)c1ccccc1

>  <assigned_class>
Y

$$$$
>  <given_smiles>
CCOc1ccccc1/C=C1\C=Nc2ccccc21

>  <assigned_class>
N

$$$$
>  <given_smiles>
O=C(NNc1nc(-c2ccccc2)cs1)C(F)(F)F

>  <assigned_class>
Y

$$$$
>  <given_smiles>
O=C(O)c1cccc(N=Nc2c(S(=O)(=O)O)ccc3c2C(=O)c2ccccc2C3=O)c1O

>  <assigned_class>
N

$$$$

====

experiment: NCI Yeast Anticancer Drug Screen. Data for the mlh1 rad18 strain (AID 175); conditions: S. cerevisiae mlh1 rad18 strain growth inhibition; at 5.0 µM (retest, dose inferred, filed as 0.5); active compounds read high
About 79,000 compounds went through this panel and 15% of them were active in at least one assay; those are over-represented in the sample as a whole.

>  <compound>
O=C1/C(=C\c2ccccc2)C(NC2CCCCC2)c2ccccc21 (configuration not stated)

>  <growth inhibition (%)>
74

$$$$
>  <compound>
COc1ccc2nc3c([N+](=O)[O-])ccc(NCCCN(C)C)c3c(N)c2c1

>  <growth inhibition (%)>
-14

$$$$
>  <compound>
CCCc1cc2c(cc1CS(=O)(=O)CC)OCO2

>  <growth inhibition (%)>
-4

$$$$
>  <compound>
O=C(COc1ccc(Cl)c(Cl)c1)Nc1ccc[n+](Cc2ccc(Cl)c(Cl)c2)c1

>  <growth inhibition (%)>
39

$$$$
>  <compound>
Fc1cccc(CSc2ncnc3c2ncn3C2CCCS2)c1 (configuration not stated)

>  <growth inhibition (%)>
3

$$$$
>  <compound>
O=C(O)CCCCCCCCC(=O)O.[Ag]

>  <growth inhibition (%)>
99

$$$$
>  <compound>
OC(CBr)C[n+]1cccc2cc(Cl)ccc21 (configuration not stated)

>  <growth inhibition (%)>
2

$$$$
>  <compound>
CC(=O)CC(=O)OCc1ccccc1

>  <growth inhibition (%)>
14

$$$$
>  <compound>
Cc1nn(C(=O)c2ccccc2O)c2c1C(c1ccco1)SC(N)=N2 (configuration not stated)

>  <growth inhibition (%)>
11

$$$$
>  <compound>
CC(C)=CCC(CC=C(C)C)c1ccncc1 (tested in a mixture with another compound)

>  <growth inhibition (%)>
49

$$$$
>  <compound>
CCC(=O)C(=O)CC1CC(c2ccco2)=Nc2ccccc2S1 (configuration not stated)

>  <growth inhibition (%)>
14

$$$$
>  <compound>
O=c1c(O)c(-c2ccc(Cl)cc2)oc2cc(O)ccc12

>  <growth inhibition (%)>
7

$$$$
>  <compound>
Cc1c(N)nc(C(CC(N)=O)NCC(N)C(N)=O)nc1C(=O)NC(C(=O)NC(C)C(O)C(C)C(=O)NC(C(=O)NCCc1nc(-c2nc(C(=O)NCCCNC(C)c3ccccc3)cs2)cs1)C(C)O)C(OC1OC(CO)C(O)C(O)C1OC1OC(CO)C(O)C(OC(N)=O)C1O)c1cnc[nH]1 (configuration not stated)

>  <growth inhibition (%)>
98

$$$$
>  <compound>
C/C(=N\NC(=S)N1CCCC1)c1cnccn1

>  <growth inhibition (%)>
80

$$$$
>  <compound>
COc1cccc(NC(=S)NC2CC(C)CC(C)(C)C2)c1 (configuration not stated)

>  <growth inhibition (%)>
-7

$$$$
>  <compound>
COC1OC2COC(c3ccccc3)OC2C(NC(=S)SCc2ccccc2)C1O (configuration not stated)

>  <growth inhibition (%)>
7

$$$$
>  <compound>
CC1=C(CO)C(=O)O[C@@H]([C@@H](C)[C@H]2CC[C@H]3[C@@H]4C[C@@H](O)C5=CC=CC(=O)[C@]5(C)[C@H]4CC[C@]23C)C1

>  <growth inhibition (%)>
-22

$$$$
>  <compound>
O=[N+]([O-])C1(CO)COC(CCc2ccccc2)OC1 (configuration not stated)

>  <growth inhibition (%)>
0

$$$$
>  <compound>
c1ccc([Si](C[CH2][Sn]([c]2ccccc2)([c]2ccccc2)[c]2ccccc2)(c2ccccc2)c2ccc([Si](C[CH2][Sn]([c]3ccccc3)([c]3ccccc3)[c]3ccccc3)(c3ccccc3)c3ccccc3)cc2)cc1

>  <growth inhibition (%)>
99

$$$$
>  <compound>
CCOC(=O)C(/C=N\C(=S)Nc1c(CC)cccc1C(C)(C)C)=C(/O)c1ccccc1

>  <growth inhibition (%)>
4

$$$$
>  <compound>
C=CCOc1ccc(/C=N/NC(N)=S)cc1

>  <growth inhibition (%)>
10

$$$$
>  <compound>
Cc1cc(N2C(=O)CCSC2=S)c([N+](=O)[O-])cc1C

>  <growth inhibition (%)>
65

$$$$
>  <compound>
CN(C)N=Nc1ccc(-c2ccccc2)cc1

>  <growth inhibition (%)>
38

$$$$
>  <compound>
Nc1cc(F)cc(F)c1[N+](=O)[O-]

>  <growth inhibition (%)>
7

$$$$
>  <compound>
CC(=O)N(O)c1ccc2c(c1)Cc1cc(F)ccc1-2

>  <growth inhibition (%)>
49

$$$$
>  <compound>
COc1cc(C2c3cc4c(cc3OC(NNc3ccccc3)C2C)OCO4)cc(OC)c1O (configuration not stated)

>  <growth inhibition (%)>
-11

$$$$
>  <compound>
CCN(CC)c1ccc(Cl)c2c1C(O)(C(C)C)C2(C)C (configuration not stated)

>  <growth inhibition (%)>
17

$$$$
>  <compound>
CN(C)CCC(=O)[C@@]1(O)CC[C@H]2[C@@H]3CC=C4C[C@@H](O)CC[C@]4(C)[C@H]3CC[C@@]21C

>  <growth inhibition (%)>
16

$$$$
>  <compound>
Cc1c2ccccc2c(=O)n2c(-c3ccccn3)cccc12

>  <growth inhibition (%)>
-43

$$$$
>  <compound>
O=C(O)/C=C/C(=O)c1ccc(O)cc1

>  <growth inhibition (%)>
32

$$$$
>  <compound>
c1ccc(-c2n[nH]c3c4ccccc4c4ccccc4c23)cc1

>  <growth inhibition (%)>
62

$$$$
>  <compound>
CC(=O)c1nc2ccccc2n1C(C)C(=O)c1ccccc1 (configuration not stated)

>  <growth inhibition (%)>
18

$$$$
>  <compound>
COc1cc(C2c3cc4c(cc3OC3(O)C=C(C)OC(=O)C23)OCO4)cc(OC)c1OC (configuration not stated)

>  <growth inhibition (%)>
1

$$$$
>  <compound>
NC(=O)C(=CNc1nc(-c2ccc(Br)cc2)cs1)C(N)=O

>  <growth inhibition (%)>
-6

$$$$
>  <compound>
CCOC(=O)/C(=N/NS(=O)(=O)c1c(C)cc(C)cc1C)c1ccco1

>  <growth inhibition (%)>
4

$$$$
>  <compound>
Cc1ccc(S(=O)(=O)N/N=C/c2cc(I)cc([N+](=O)[O-])c2O)cc1

>  <growth inhibition (%)>
21

$$$$
>  <compound>
O=C1SC(c2ccccc2)=S=C1c1ccccc1

>  <growth inhibition (%)>
33

$$$$
>  <compound>
O=S(=O)(Nc1ccccc1)c1ccccc1C=C(c1ccccc1)c1ccccc1

>  <growth inhibition (%)>
81

$$$$
>  <compound>
CCCCCOC(=O)CSC#N

>  <growth inhibition (%)>
91

$$$$
>  <compound>
ClCc1nc2ccccc2c2ccccc12

>  <growth inhibition (%)>
12

$$$$
>  <compound>
ClC1=C(Cl)C(Cl)(C(Cl)(Cl)Cl)C(Cl)=C1Cl

>  <growth inhibition (%)>
99

$$$$
>  <compound>
N#CS/C(Cl)=C(/C(Cl)=C(Cl)Cl)[N+](=O)[O-]

>  <growth inhibition (%)>
-15

$$$$
